- testMethodNotes: PK Study of Compounds in Rats
- Format: in vivo, Male SD rats
- appliedConditions: male, SD, rat, whole blood, PO 10 mg/kg (n=3), mean
measuredQuantity: half-life (h)
Just the number in h, nothing appended.

(Q) What value of half-life has been recorded for this entry: CC1OCCCn2c(c3c4cc(ccc42)-c2csc(n2)CC(NC(=O)C2C4COCC42)C(=O)N2NC(C(=O)OCC(C)(C)C3)C3CC2C3)-c2cc(N3CCN(C)CC3)cnc21 (stereo not shown) [Example 192]
(A) 5.13

====

- testMethodNotes: PK Study of Compounds in Mice
- Type: in vivo, Female ICR mice
- appliedConditions: female, ICR, mouse, whole blood, PO 10 mg/kg (n=3), mean, read-out: C0/Cmax
measuredQuantity: Cmax (ng/mL)
Just the number in ng/mL, nothing appended.

(Q) What value of Cmax has been recorded for this entry: CC1OCCCn2c(c3c4cc(ccc42)-c2csc(n2)CC(NC(=O)C2C(C)C2C)C(=O)N2NC(C(=O)OCC(C)(C)C3)C3CC2C3)-c2cc(N3CCN(C4COC4)CC3)cnc21 (centres unmarked) [Example 198]
(A) 1300

Could you now consider this next compound?
(Q) What value of Cmax has been recorded for this entry: CC1OCCCn2c(c3c4cc(ccc42)-c2csc(n2)CC(NC(=O)C2C(C)C2C)C(=O)N2NC(C(=O)OCC(C)(C)C3)C3CC2C3)-c2cc(N3CCN(C)CC3)cnc21 (centres unmarked) [Example 186]
(A) 679

====

- system: KRAS G12D-cRAF (Homo sapiens, UniProt P01116, G12D)
- Construct: expressed in transfected cells
- Sequence (P01116 1-188 isoform P01116-2 G12D): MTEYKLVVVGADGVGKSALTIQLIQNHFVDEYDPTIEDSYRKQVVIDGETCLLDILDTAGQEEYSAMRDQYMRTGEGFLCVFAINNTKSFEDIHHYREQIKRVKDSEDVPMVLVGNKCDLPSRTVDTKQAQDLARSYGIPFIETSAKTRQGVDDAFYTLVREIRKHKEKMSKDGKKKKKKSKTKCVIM
- testMethodNotes: Cellular KRAS G12D-cRAF Binding Inhibition Assay (NanoBRET, AD293 stable cells)
- Assay type: cell-based
- appliedConditions: 3 h incubation, read-out: NanoBRET KRAS G12D
Measured log10 of IC50, listed per entry.
Note the log scale: values are log10 of IC50 expressed in nM.

// solved cases for log10 of IC50 follow
(Q) What value of log10 of IC50 has been recorded for this entry: CC1OCCCn2c(c3c4cc(ccc42)-c2csc(n2)CC(NC(=O)C2CC2C(F)F)C(=O)N2CCCC(N2)C(=O)OCC(C)(C)C3)-c2cc(N3CCC(N4CCOCC4)CC3)cnc21 (centres unmarked)
(A) 0.81

(Q) Now give it for CCN1CCN(c2cnc3c(c2)-c2c4c5cc(ccc5n2CC(C)COC3C)-c2csc(n2)CC(NC(=O)C2CC2C(F)F)C(=O)N2CCCC(N2)C(=O)OCC(C)(C)C4)CC1 (centres unmarked) too.
(A) -0.04

(Q) Now give it for CCN1CCN(c2cnc3c(c2)-c2c4c5cc(ccc5n2CCCOC3C)-c2csc(n2)CC(NC(=O)C(C(C)C)N(C)C(=O)N2CCOCC2)C(=O)N2CCCC(N2)C(=O)OCC(C)(C)C4)CC1 (centres unmarked) too.
(A) 0.54

(Q) Now give it for CCN1CCN(c2cnc3c(c2)-c2c4c5cc(ccc5n2CCCOC3C)-c2csc(n2)CC(NC(=O)C2C(C)C2C)C(=O)N2CCCC(N2)C(=O)OCC(C)(C)C4)CC1 (centres unmarked) too.
(A) -0.42

Further cases:
(Q) What value of log10 of IC50 has been recorded for this entry: CC1OCCCn2c(c3c4cc(ccc42)-c2csc(n2)CC(NC(=O)C2C(C)C2C)C(=O)N2CCCC(N2)C(=O)OCC(C)(C)C3)-c2cc(CN3CCN(C)CC3)cnc21 (centres unmarked)
(A) 0.08

====

- system: KRAS G12V-cRAF (Homo sapiens, UniProt P01116, G12V)
- Construct: expressed in transfected cells
- Sequence (P01116 1-188 isoform P01116-2 G12V): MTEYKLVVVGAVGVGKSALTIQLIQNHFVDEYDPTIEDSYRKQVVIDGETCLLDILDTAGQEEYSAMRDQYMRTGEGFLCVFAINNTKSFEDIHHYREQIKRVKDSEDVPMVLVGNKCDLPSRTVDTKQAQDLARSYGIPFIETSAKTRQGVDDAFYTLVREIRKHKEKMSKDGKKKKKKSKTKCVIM
- testMethodNotes: Cellular KRAS G12V-cRAF Binding Inhibition Assay (NanoBRET, AD293 stable cells)
- Type: cell-based
- appliedConditions: 3 h incubation, read-out: NanoBRET KRAS G12V
- Procedure: NanoLuc® luciferase was used as the energy donor, and NanoBRET™ 618 fluorescent ligand labeled with the HaloTag® protein was used as the energy acceptor to detect protein-protein interactions in living cells. […] The luminescence data were calculated and converted into inhibition percent. The inhibition percent of KRAS G12V-cRAF binding was calculated according to the following formula: Inhibition Percent = (MaxValue−MeasuredValue)/(MaxValue−Blank) × 100% [formula] […]
Note that class boundaries on IC50 are 1 = under 10 nM, 2 = from 10 nM up to 20 nM, 3 = 20 nM and over

Reference set (3 entries):
(Q) Which bin should I file CC1OCCCn2c(c3c4cc(ccc42)-c2csc(n2)CC(NC(=O)C2CC2C)C(=O)N2CCCC(N2)C(=O)OCC(C)(C)C3)-c2cc(N3CCOCC3)cnc21 (centres unmarked) under?
(A) 3

(Q) Now give it for CC1OCCCn2c(c3c4cc(ccc42)-c2csc(n2)CC(NC(=O)C2C(C)C2C)C(=O)N2NC(C(=O)OCC(C)(C)C3)C3CC2C3)-c2cc(N3CCN(C4COC4)CC3)cnc21 (centres unmarked) too.
(A) 1

(Q) Now give it for CCN1CCN(c2cnc3c(c2)-c2c4c5cc(ccc5n2CC(C)COC3C)-c2csc(n2)CC(NC(=O)C2CC2C(F)F)C(=O)N2CCCC(N2)C(=O)OCC(C)(C)C4)CC1 (centres unmarked) too.
(A) 1

Kindly review the next compound as well.
(Q) Which bin should I file CC1OCCCn2c(c3c4cc(ccc42)-c2csc(n2)CC(NC(=O)C2CC2C(F)F)C(=O)N2CCCC(N2)C(=O)OCC(C)(C)C3)-c2cc(N3CC(C)N(C)C(C)C3)cnc21 (centres unmarked) [Example 140] under?
(A) 1

====

- system: KRAS G12V-cRAF (Homo sapiens, UniProt P01116, G12V)
- Construct: expressed in transfected cells
- testMethodNotes: Cellular KRAS G12V-cRAF Binding Inhibition Assay (NanoBRET, AD293 stable cells)
- Assay type: cell-based
- appliedConditions: NanoBRET KRAS G12V, 3 h incubation
measuredQuantity: pIC50
Hey, just a heads up that pIC50 is the negative log base 10 of the concentration in molar.

(Q) Can you look up pIC50 on KRAS G12V-cRAF (Homo sapiens, UniProt P01116, G12V) for "C[C@H]1C[C@@H]1C(=O)N[C@H]1Cc2nc(cs2)-c2ccc3c(c2)c(c2n3CCCOCc3ncc(N4CCN(C)CC4)cc3-2)CC(C)(C)COC(=O)[C@@H]2CCCN(N2)C1=O" ?
(A) 6.69

(Q) Now give it for "C[C@H]1C[C@@H]1C(=O)N[C@H]1Cc2nc(cs2)-c2ccc3c(c2)c(c2n3[C@@H](C)CCOCc3ncc(N4CCN(C)CC4)cc3-2)CC(C)(C)COC(=O)[C@@H]2CCCN(N2)C1=O" too.
(A) 6.19

(Q) Now give it for "C[C@@H]1OCC[C@H](C)n2c(c3c4cc(ccc42)-c2csc(n2)C[C@H](NC(=O)[C@H]2C[C@@H]2C)C(=O)N2CCC[C@H](N2)C(=O)OCC(C)(C)C3)-c2cc(N3CCN(C)CC3)cnc21" too.
(A) 7.10

(Q) Now give it for "C[C@@H]1OCCCn2c(c3c4cc(ccc42)-c2csc(n2)C[C@H](NC(=O)[C@H]2C[C@@H]2C)C(=O)N2CCC[C@H](N2)C(=O)OCC(C)(C)C3)-c2cc(N3CCN(C)CC3)cnc21" too.
(A) 7.52

====

- testMethodNotes: PK Study of Compounds in Dogs
- Type: in vivo, Beagle dogs
- appliedConditions: both sexes, beagle, dog, whole blood, PO 3 mg/kg (n=3), mean
- Protocol: The test compound was mixed with the vehicle (10% DMSO/5% Solutol/85% physiological saline), vortexed and sonicated to prepare a clear 1 mg/mL intravenous injection solution. The test compound was mixed with the vehicle (10% DMSO + 5% HS15 + 85% 10 mM aqueous citric acid solution), vortexed and sonicated to prepare a clear 0.6 mg/mL oral solution. […] Drug concentrations were analyzed by LC-MS/MS method, and pharmacokinetic parameters were calculated using Phoenix WinNonlin software (Pharsight, USA).
measuredQuantity: AUC(0-t) (ng·h/mL)
Just the number in ng·h/mL, nothing appended.

(Q) What value of AUC(0-t) has been recorded for this entry: CC1OCCCn2c(c3c4cc(ccc42)-c2csc(n2)CC(NC(=O)C2C(C)C2C)C(=O)N2NC(C(=O)OCC(C)(C)C3)C3CC2C3)-c2cc(N3CCN(C)CC3)cnc21 (stereo not shown)
(A) 20500

====

Measured pIC50, listed per entry.
- system: KRAS G12D-cRAF (Homo sapiens, UniProt P01116, G12D)
- Construct: expressed in transfected cells
- testMethodNotes: Cellular KRAS G12D-cRAF Binding Inhibition Assay (NanoBRET, AD293 stable cells)
- Type: cell-based
- appliedConditions: 3 h incubation, read-out: NanoBRET KRAS G12D
Hey, just a heads up that pIC50 is the negative log base 10 of the concentration in molar.

(Q) What value of pIC50 has been recorded for this entry: COC1CCN(c2cnc3c(c2)-c2c4c5cc(ccc5n2CCCOC3C)-c2csc(n2)CC(NC(=O)C2CC2C(F)F)C(=O)N2CCCC(N2)C(=O)OCC(C)(C)C4)CC1 (centres unmarked) [Example 113]
(A) 8.15

Further cases:
(Q) What value of pIC50 has been recorded for this entry: CC1OCCCn2c(c3c4cc(ccc42)-c2csc(n2)CC(NC(=O)C2CC2C(F)F)C(=O)N2CCCC(N2)C(=O)OCC(C)(C)C3)-c2cc(N3CCOCC3)cnc21 (centres unmarked) [Example 83]
(A) 8.54

(Q) Now give it for CC1OCCCn2c(c3c4cc(ccc42)-c2csc(n2)CC(NC(=O)C2CC2C(F)F)C(=O)N2CCCC(N2)C(=O)OCC(C)(C)C3)-c2cc(N3CC[S+]([O-])CC3)cnc21 (centres unmarked) [Example 134] too.
(A) 7.86

(Q) Now give it for CC1OCCCn2c(c3c4cc(ccc42)-c2csc(n2)CC(NC(=O)C2CC2C(F)F)C(=O)N2CCCC(N2)C(=O)OCC(C)(C)C3)-c2cc(OC3CCN(C)CC3)cnc21 (centres unmarked) [Example 97] too.
(A) 7.92

(Q) Now give it for CC1OCCCn2c(c3c4cc(ccc42)-c2csc(n2)CC(NC(=O)C2CC2C(F)F)C(=O)N2CCCC(N2)C(=O)OCC(C)(C)C3)-c2cc(N3CCN(C(C)C)CC3)cnc21 (centres unmarked) [Example 86] too.
(A) 8.66

(Q) Now give it for CC1OCCCn2c(c3c4cc(ccc42)-c2csc(n2)CC(NC(=O)C2CC2C(F)F)C(=O)N2CCCC(N2)C(=O)OCC(C)(C)C3)-c2cc(N3CCN4CCOCC4C3)cnc21 (centres unmarked) [Example 110] too.
(A) 8.38

(Q) Now give it for CC1OCCCn2c(c3c4cc(ccc42)-c2coc(n2)CC(NC(=O)C2CC2C(F)F)C(=O)N2CCCC(N2)C(=O)OCC(C)(C)C3)-c2cc(N3CCOCC3)cnc21 (centres unmarked) [Example 146] too.
(A) 8.71

(Q) Now give it for COC1CCN(c2cnc3c(c2)-c2c4c5cc(ccc5n2CCCOC3C)-c2csc(n2)CC(NC(=O)C2CC2C(F)F)C(=O)N2CCCC(N2)C(=O)OCC(C)(C)C4)C1 (centres unmarked) [Example 135] too.
(A) 8.62

(Q) Now give it for CC1OCCCn2c(c3c4cc(ccc42)-c2csc(n2)CC(NC(=O)C24CC(C)(C2)C4)C(=O)N2CCCC(N2)C(=O)OCC(C)(C)C3)-c2cc(N3CC(C)N(C)C(C)C3)cnc21 (centres unmarked) [Example 172] too.
(A) 8.69

(Q) Now give it for CC1OCCCn2c(c3c4cc(ccc42)-c2csc(n2)CC(NC(=O)C2C(C)C2C)C(=O)N2CCCC(N2)C(=O)OCC(C)(C)C3)-c2cc(N3CC(C)N(C)C(C)C3)cnc21 (centres unmarked) [Example 171] too.
(A) 9.62

(Q) Now give it for CC1OCCCn2c(c3c4cc(ccc42)-c2csc(n2)CC(NC(=O)C2C(C)C2C)C(=O)N2NC(C(=O)OCC(C)(C)C3)C3CC2C3)-c2cc(N3CCN(C)CC3)cnc21 (centres unmarked) [Example 186] too.
(A) 9.10
